Assay: Cyto-toxicity (MTT assay)
Type: cell-based
The following molecules are shown together with reported viability at 4 days, 0.01 µM values.

- molecule: "CC(C)C1=C2[C@H]3CC[C@@H]4[C@@]5(C)CC[C@H](OC(=O)[C@H]6C[C@@H](C(=O)O)C6(C)C)C(C)(C)[C@@H]5CC[C@@]4(C)[C@]3(C)CC[C@@]2(NC(=O)C(C)(C)NC(=O)c2cnccn2)CC1=O [Example 5]"
  viability at 4 days, 0.01 µM (%): 74
- molecule: "Cc1ccc(C(=O)NC(C)(C)C(=O)N[C@@]23CC[C@]4(C)[C@H](CC[C@@H]5[C@@]6(C)CC[C@H](OC(=O)[C@H]7C[C@@H](C(=O)O)C7(C)C)C(C)(C)[C@@H]6CC[C@]54C)C2=C(C(C)C)C(=O)C3)cn1 [Example 61]"
  viability at 4 days, 0.01 µM (%): 88
- molecule: "Cc1ccc(C(=O)NC2(C(=O)N[C@@]34CC[C@]5(C)[C@H](CC[C@@H]6[C@@]7(C)CC[C@H](OC(=O)[C@H]8C[C@@H](C(=O)O)C8(C)C)C(C)(C)[C@@H]7CC[C@]65C)C3=C(C(C)C)C(=O)C4)CCCCC2)cc1 [Example 50]"
  viability at 4 days, 0.01 µM (%): 21
- molecule: "CC(C)C1=C2[C@H]3CC[C@@H]4[C@@]5(C)CC[C@H](OC(=O)[C@H]6C[C@@H](C(=O)O)C6(C)C)C(C)(C)[C@@H]5CC[C@@]4(C)[C@]3(C)CC[C@@]2(NC(=O)C(C)(C)NC(=O)c2ccc3ccccc3n2)CC1=O [Example 28]"
  viability at 4 days, 0.01 µM (%): 21

---

Test: Cyto-toxicity (MTT assay)
Type: cell-based
Settings: 0.001 μM; MTT, 4 days (Table 3A); read-out: Cytotoxicity % viability
Where a name gives a salt, the structure may show the parent alone.

- compound: "CC(C)C1=C2[C@H]3CC[C@@H]4[C@@]5(C)CC[C@H](OC(=O)[C@H]6C[C@@H](C(=O)O)C6(C)C)C(C)(C)[C@@H]5CC[C@@]4(C)[C@]3(C)CC[C@@]2(NC(=O)C(C)(C)NC(=O)[C@H]2CCCNC2)CC1=O [Example 52, hydrochloride]"
  viability at 4 days, 0.001 µM: "83%"

---

Assay: Single dose oral pharmacokinetic study
Assay type: in vivo
Conditions: mouse; Mice oral PK @30 mg/kg; plasma; vehicle 10% Solutol+20% PEG; read-out: Cmax

- line-notation: "CC(C)C1=C2[C@H]3CC[C@@H]4[C@@]5(C)CC[C@H](OC(=O)[C@H]6C[C@@H](C(=O)O)C6(C)C)C(C)(C)[C@@H]5CC[C@@]4(C)[C@]3(C)CC[C@@]2(NC(=O)C(C)(C)NC(=O)c2ccc(Cl)c(Cl)c2)CC1=O"
  Cmax, ng/mL: 8840
- line-notation: "Cc1ccc(C(=O)NC2(C(=O)N[C@@]34CC[C@]5(C)[C@H](CC[C@@H]6[C@@]7(C)CC[C@H](OC(=O)[C@H]8C[C@@H](C(=O)O)C8(C)C)C(C)(C)[C@@H]7CC[C@]65C)C3=C(C(C)C)C(=O)C4)CC2)cn1"
  Cmax, ng/mL: 10100
- line-notation: "CC(C)C1=C2[C@H]3CC[C@@H]4[C@@]5(C)CC[C@H](OC(=O)[C@H]6C[C@@H](C(=O)O)C6(C)C)C(C)(C)[C@@H]5CC[C@@]4(C)[C@]3(C)CC[C@@]2(NC(=O)C2(NC(=O)c3ncccn3)CCC2)CC1=O"
  Cmax, ng/mL: 19800
- line-notation: "CCOC(=O)NC(C)(C)C(=O)N[C@@]12CC[C@]3(C)[C@H](CC[C@@H]4[C@@]5(C)CC[C@H](OC(=O)[C@H]6C[C@@H](C(=O)O)C6(C)C)C(C)(C)[C@@H]5CC[C@]43C)C1=C(C(C)C)C(=O)C2"
  Cmax, ng/mL: 27400
- line-notation: "CC(C)C1=C2[C@H]3CC[C@@H]4[C@@]5(C)CC[C@H](OC(=O)[C@H]6C[C@@H](C(=O)O)C6(C)C)C(C)(C)[C@@H]5CC[C@@]4(C)[C@]3(C)CC[C@@]2(NC(=O)C2(NC(=O)c3ccc(Cl)cc3)CC2)CC1=O"
  Cmax, ng/mL: 38800
- line-notation: "CC(C)C1=C2[C@H]3CC[C@@H]4[C@@]5(C)CC[C@H](OC(=O)[C@H]6C[C@@H](C(=O)O)C6(C)C)C(C)(C)[C@@H]5CC[C@@]4(C)[C@]3(C)CC[C@@]2(NC(=O)C(C)(C)NCc2ccccn2)CC1=O"
  Cmax, ng/mL: 24300
- line-notation: "CC(C)C1=C2[C@H]3CC[C@@H]4[C@@]5(C)CC[C@H](OC(=O)[C@H]6C[C@@H](C(=O)O)C6(C)C)C(C)(C)[C@@H]5CC[C@@]4(C)[C@]3(C)CC[C@@]2(NC(=O)C(C)(C)NC(=O)CN(C)C)CC1=O"
  Cmax, ng/mL: 13900
- line-notation: "Cc1ccc(C(=O)NC2(C(=O)N[C@@]34CC[C@]5(C)[C@H](CC[C@@H]6[C@@]7(C)CC[C@H](OC(=O)[C@H]8C[C@@H](C(=O)O)C8(C)C)C(C)(C)[C@@H]7CC[C@]65C)C3=C(C(C)C)C(=O)C4)CC2)cc1"
  Cmax, ng/mL: 20300

Values were extracted from patent US20170008921A1.
